Quick reference: Size of the listed items.
procedure-details: Particle size and PDI of lipid nanoparticles by dynamic light scattering (Malvern Zetasizer)
Format: physicochemical
test-conditions: mEPO mRNA LNP
# include the unit after the value

Query string: In one line, give reported Size of the entry CCCCC/C=C\C/C=C\CCCCCCCCC(CCC(=O)OC(COC(=O)CCCCCCC)COC(=O)CCCCCCC)OC(=O)OCCCN(C)C (stereo not shown) .
Result string: 108.5 nm

Query string: Provide only the value of recorded Size for CCCCCCCCCCCCC(CCOC(=O)CCCCC(OCCCCCCCC)OCCCCCCCC)OC(=O)OCCCN(CC)CC (stereo not shown)
Result string: 83.2 nm

Query string: Report Size for CCCCCCCCCCCCC(CCOC(=O)CCCCC(COC(=O)CCCCCCC)COC(=O)CCCCCCC)OC(=O)OCCCN(CC)CC (stereo not shown)
Result string: 104.1 nm

Query string: For CCCCC/C=C\C/C=C\CCCCCCCC(=O)OCC(COC(=O)CCCCCCC/C=C\C/C=C\CCCCC)OC(=O)CCC(CCCCCCCCCCCC)OC(=O)OCCCN(C)C (stereo not shown) , write its Size.
Result string: 166.0 nm

The reported measurements were obtained from patent US11013696B2.
